assay summary: qHTS screen for small molecules that inhibit ELG1-dependent DNA repair in human embryonic kidney (HEK293T) cells expressing luciferase-tagged ELG1; further: nearly all actives have a fitted effect of over 55% in size
condition label: HEK293T ELG1-luciferase reporter, luminescence, 16 h, DNA damage induced by 5-fluorouridine; series mostly up to 46.1 µM
The whole screen tested about 330,000 compounds, of which about 7,700 (2.3%) were called active. Another 26% or so got no clear call; they are omitted. The call rests on the fitted dose curve; in most records, active means well fitted inhibition curve with a large enough effect; inconclusive means small, poorly fitted or top-dose-only effect, or effect the other way; inactive means flat fitted curve, though single readings scatter. This is one part of a sample in which actives are shown more often than they occur.
Select the matching outcome among active, inactive

What did the test return for `COc1ccc(CCNC(=S)N2CCN(S(=O)(=O)c3ccc(F)cc3)CC2)cc1` ?
inactive

What did the test return for `Cc1csc(SCC(=O)N(c2ccccc2)C(C)C)n1` ?
inactive

What did the test return for `Cc1cccc(CSc2nc3c(c(=O)n2C)SCC3)c1` ?
active

What did the test return for `COC(=O)c1ccc(NC(=O)C23CC4CC(C2)CC(n2cnc(Cl)n2)(C4)C3)cc1` ?
active

What did the test return for `Cc1ncn(C23CC4CC(CC(O)(C4)C2)C3)n1` ?
inactive

What did the test return for `CCn1c(SCc2ccccc2)nc2c(c1=O)SCC2` ?
inactive
